Experiment: RP-TLC determination of lipophilicity (RM0, logPTLC)
Conditions: slope of RM = RM0 + b·C, acetone/TRIS buffer pH 7.4
Output condition met for records whose b (slope) is lower than -0.05, condition not met for records at or above -0.05.

For orientation, consider the following solved cases.
{"columns": ["compound", "assigned-label"],
 "data": [
  ["CN1c2ccc3ccccc3c2Sc2cc3ccccc3nc21", "condition met"],
  ["c1ccc2nc3c(cc2c1)Sc1ccc2cccnc2c1N3", "condition not met"],
  ["C#CCN1c2ccc3ccccc3c2Sc2cc3ccccc3nc21", "condition met"],
  ["C#CCN1c2cnc3ccccc3c2Sc2cc3ccccc3nc21", "condition not met"],
  ["C=CCN1c2cnc3ccccc3c2Sc2cc3ccccc3nc21", "condition met"]
]}

### Prompt Determine if CN1c2nc3ccccc3cc2Sc2ccc3ncccc3c21 shows b (slope) strictly lower than -0.05.
### Response condition met

### Prompt Determine if C=CCN1c2ccc3ncccc3c2Sc2cc3ccccc3nc21 shows b (slope) strictly lower than -0.05.
### Response condition met

### Prompt Determine if C=CCN1c2nc3ccccc3cc2Sc2ccc3cccnc3c21 shows b (slope) strictly lower than -0.05.
### Response condition not met

### Prompt Determine if c1ccc2nc3c(cc2c1)Sc1c(cnc2ccccc12)N3 [Compound 1, 7H-diquino[3,2-b;3′,4′-e]thiazine] shows b (slope) strictly lower than -0.05.
### Response condition not met

====

Measured b (slope), listed per entry for reference.
Assay: RP-TLC determination of lipophilicity (RM0, logPTLC)
Settings: slope of RM = RM0 + b·C, acetone/TRIS buffer pH 7.4
Just the number, please, no unit after it.

Solved cases (5 shown):
{"columns": ["smiles-notation", "b (slope)"],
 "data": [
  ["c1ccc2nc3c(cc2c1)Sc1c(ccc2ncccc12)N3", "−0.0459"],
  ["CN1c2cnc3ccccc3c2Sc2cc3ccccc3nc21", "−0.0503"],
  ["C#CCN1c2ccc3ncccc3c2Sc2cc3ccccc3nc21", "−0.0539"],
  ["c1ccc2nc3c(cc2c1)Sc1ccc2ccccc2c1N3", "−0.0484"],
  ["C=CCN1c2nc3ccccc3cc2Sc2ccc3ccccc3c21", "−0.0548"]
]}

Turning now to a further record.
### Prompt Give its b (slope) value. Item: c1ccc2nc3c(cc2c1)Sc1c(ccc2ccccc12)N3
### Response −0.0573

====

Assay: RP-TLC determination of lipophilicity (RM0, logPTLC);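 further: silica gel 60 RP-18 F254S plates, TRIS buffer of ionic strength 0.2 M, detection under UV at 254 nm, RF averaged over three or more runs, C in % v/v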
Details: RP-18 plate, acetone/TRIS buffer pH 7.4, extrapolated to zero acetone
observable: RM0
Just the number, please, no unit after it.

{"columns": ["molecule", "observable", "readout-value"],
 "data": [
  ["C#CCN1c2nc3ccccc3cc2Sc2ccc3ccccc3c21 [Compound 21]", "RM0", 4.09],
  ["c1ccc2nc3c(cc2c1)Sc1ccc2cccnc2c1N3 [Compound 11]", "RM0", 3.48],
  ["C=CCN1c2nc3ccccc3cc2Sc2ccc3ccccc3c21 [Compound 20, 14-allylquinonaphthothiazine]", "RM0", 4.34],
  ["C#CCN1c2ccc3ncccc3c2Sc2cc3ccccc3nc21 [Compound 8]", "RM0", 3.96],
  ["CN1c2ccc3ncccc3c2Sc2cc3ccccc3nc21 [Compound 6]", "RM0", 4.24]
]}

### Prompt Give its RM0 value. Item: c1ccc2nc3c(cc2c1)Sc1ccc2ccccc2c1N3 [Compound 18]
### Response 3.81

### Prompt Give its RM0 value. Item: Clc1ccc(C(c2ccc(Cl)cc2)C(Cl)(Cl)Cl)cc1 [Standard V, p,p’-DDT, reference compound]
### Response 4.69

### Prompt Give its RM0 value. Item: CN1c2cnc3ccccc3c2Sc2cc3ccccc3nc21 [Compound 2]
### Response 4.14

### Prompt Give its RM0 value. Item: C#CCN1c2ccc3ccccc3c2Sc2cc3ccccc3nc21 [Compound 17]
### Response 4.29

### Prompt Give its RM0 value. Item: O=C(O)c1ccccc1 [Standard II, benzoic acid, reference compound]
### Response 1.16

### Prompt Give its RM0 value. Item: CN1c2nc3ccccc3cc2Sc2ccc3ncccc3c21 [Compound 10]
### Response 4.37

### Prompt Give its RM0 value. Item: c1ccc2nc3c(cc2c1)Sc1c(ccc2ccccc12)N3 [Compound 14]
### Response 4.24
